Source listed as patent US20130116219A1.

Measured EC50 accompanies every entry in the list below.
Test system: Ad37
Experiment: Plaque reduction assay in A549 cells, Ad37
Assay type: cell-based
Details: unidentified adenovirus, 168 h, approximately 7 d, ATCC reference strain, read-out: Adenovirus Serotype EC50 (μg/mL) Ad37

Take a look at these entries with their results.
Exercise: Note down EC50 recorded for CC(C)C[C@H]1c2[nH]c3ccc(Cl)cc3c2CCN1C(=O)CCN1CCC(F)(F)CC1
Key: < 0.1 µg/mL

Exercise: Entry CC(C)C[C@H]1c2[nH]c3ccc(Cl)cc3c2CCN1C(=O)C1CN(C2CC2)C1 needs its EC50 filled in; supply it.
Key: 0.1 to 1 µg/mL

Exercise: Indicate its recorded EC50; the compound in question is CC(C)C[C@H]1c2[nH]c3ccc(Cl)cc3c2CCN1C(=O)CCC1CCCCC1
Key: < 0.1 µg/mL

Exercise: Answer with the recorded EC50 of CC(C)C[C@H]1c2[nH]c3ccc(Cl)cc3c2CCN1C(=O)CCN1CCN(CC(F)F)CC1 only.
Key: > 1 µg/mL

# next compound below
Exercise: Supply EC50 value. Item: CC(C)C[C@H]1c2[nH]c3ccc(Cl)cc3c2CCN1C(=O)C1CCN(C2CC2)CC1
Key: 0.1 to 1 µg/mL

---

Collected EC50 values appear next to each entry.
Test system: Ad4
Test: Plaque reduction assay in A549 cells, Ad4
Type: cell-based
Conditions: unidentified adenovirus, 168 h, approximately 7 d, read-out: Adenovirus Serotype EC50 (μg/mL) Ad4

Exercise: Tell me EC50 reported for CC(C)C[C@H]1c2[nH]c3ccc(Cl)cc3c2CCN1C(=O)CNC1CC1 [Compound 91]
Key: 0.1 to 1 µg/mL

Exercise: Given the compound CC(C)C[C@H]1c2[nH]c3ccc(Cl)cc3c2CCN1C(=O)CCN1CCC(F)(F)CC1 [Compound 6] , write its reported EC50.
Key: 0.1 to 1 µg/mL

Exercise: Report measured EC50; entry is CC(C)C[C@H]1c2[nH]c3ccc(Br)cc3c2CCN1C(=O)C1CCN(C2CC2)CC1 [Compound 97]
Key: > 1 µg/mL

More entries:
Exercise: Fill in EC50 for record CC(C)C[C@H]1c2[nH]c3ccc(Cl)cc3c2CCN1C(=O)C1CCN(C2CC2)CC1 [Compound 93]
Key: 0.1 to 1 µg/mL

Exercise: Annotate the compound CC(C)C[C@H]1c2[nH]c3ccc(Cl)cc3c2CCN1C(=O)C1CN(C2CC2)C1 [Compound 92] with its measured EC50.
Key: > 1 µg/mL

Exercise: For CC(C)C[C@H]1c2[nH]c3ccc(Cl)cc3c2CCN1C(=O)CCN1CC[C@H](F)C1 [Compound 35] , write its EC50.
Key: > 1 µg/mL

---

Test system: Ad4
Assay: Plaque reduction assay in A549 cells, Ad4
Assay type: cell-based
Settings: unidentified adenovirus, 168 h, approximately 7 d, read-out: Adenovirus Serotype EC50 (μg/mL) Ad4
Below: a set of entries, each annotated with reported EC50.

Reference set, count: 2
Exercise: Specify EC50 for CC(C)C[C@H]1c2[nH]c3ccc(Cl)cc3c2CCN1C(=O)CCN1CCN(CC(F)F)CC1 and stop.
Key: 0.1 to 1 µg/mL

Exercise: Supply EC50 value. Item: CC(C)C[C@H]1c2[nH]c3ccc(Cl)cc3c2CCN1C(=O)CCC1CCCCC1
Key: 0.1 to 1 µg/mL

Kindly consider the entry below.
Exercise: Output measured EC50 for this item: CC(C)C[C@H]1c2[nH]c3ccc(Cl)cc3c2CCN1C(=O)C1CN(CCC(F)(F)F)C1
Key: 0.1 to 1 µg/mL
